target: renin (Homo sapiens, UniProt P00797); construct: This test measures the formation of angiotensin I in human plasma; assay: formation of angiotensin I in human plasma, radioimmunoassay (Nussberger et al.); settings: read-out: IC50, inhibition of the formation of angiotensin I
Sequence (P00797 67-406): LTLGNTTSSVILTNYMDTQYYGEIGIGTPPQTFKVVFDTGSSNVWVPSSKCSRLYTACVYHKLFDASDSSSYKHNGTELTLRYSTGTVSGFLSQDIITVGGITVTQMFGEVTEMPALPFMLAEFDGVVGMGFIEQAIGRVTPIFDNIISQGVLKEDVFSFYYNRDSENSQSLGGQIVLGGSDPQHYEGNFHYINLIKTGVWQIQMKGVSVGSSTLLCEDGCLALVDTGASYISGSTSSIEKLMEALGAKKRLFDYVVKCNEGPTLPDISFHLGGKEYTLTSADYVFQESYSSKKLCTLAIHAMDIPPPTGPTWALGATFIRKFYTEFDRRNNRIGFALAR
Parameter: IC50

Looking for the measured IC50 of CCCc1nc(COC[C@@H](C)OCC)ccc1[C@@]1(O)CCNC[C@@H]1OCc1ccc2c(c1)N(CCCOC)CCO2 , can you help?
48 nM

This collection of values is drawn from patent US20100267713A1.
